Tested on: K-562 leukemia
Method Summary: NCI tumour cell line growth inhibition, 48 h
Measurement Label: TGI

Reported K-562 leukemia TGI for item C/C(=C/C(=O)Nc1ccccc1)Nc1onc(C)c1C was > 100 µM

Reported K-562 leukemia TGI for item CC(CSC(=N)N)C(N)=O (centres undefined) was > 100 µM

Reported K-562 leukemia TGI for item Cn1cc(/C=C\[N+](=O)[O-])c2ccccc21 was > 100 µM

Reported K-562 leukemia TGI for item C[N+](C)(CCCCCC[N+](C)(C)CCCN1C(=O)c2cccc3cccc(c23)C1=O)CCCN1C(=O)c2cccc3cccc(c23)C1=O was > 100 µM

Reported K-562 leukemia TGI for item CN(C)CCNc1ccc2ncn3c4ccccc4c(=O)c1c23 was > 100 µM

Reported K-562 leukemia TGI for item CC(C)(C)OC(=O)NC1CCCC1C(=O)C1=CCCC1 (centres undefined) was > 100 µM

Reported K-562 leukemia TGI for item COc1nc(N=P(c2ccccc2)(c2ccccc2)c2ccccc2)cc(=O)n1C was > 100 µM

Reported K-562 leukemia TGI for item O[C@]12C=C(c3nccc4c3[nH]c3ccccc34)[C@@H]3CCN(CCCC/C=C\CC1)C[C@@]31CC3/C=C\CCCCN3[C@H]12 (some centres undefined) was 2.84 µM

Reported K-562 leukemia TGI for item O=c1[nH]nc(Cc2ccccc2)n1/N=C/c1cccs1 was > 100 µM

Reported K-562 leukemia TGI for item OCC1O[C@H](O[C@@H]2CCCN3CC(O)C(O)[C@@H]23)C(O)C(O)C1O (some centres undefined) was > 100 µM

Reported K-562 leukemia TGI for item CC(C)=CCc1cc2c(cc1O)C1=C(C(=O)C3=C(C1=O)S(=O)(=O)CCN3)C(C=C(C)C)O2 (centres undefined) was 14.6 µM

Reported K-562 leukemia TGI for item CC(C)(C)N=CN1C=Cc2nc3ccccc3cc2C1 was > 100 µM

Reported K-562 leukemia TGI for item O=C(Nc1ccc(Oc2ccc(F)cc2)cc1)[C@@H]1C[C@@H](Cc2ccc(F)cc2)CN1C(=O)Cn1ccnn1 was > 65 µM

Reported K-562 leukemia TGI for item CC1=NN(c2nc(N)nc(NS(=O)(=O)c3cc(C)c(Cl)cc3S)n2)C(C)(C)C1 was > 10 µM

Reported K-562 leukemia TGI for item Nc1ccc2n[se]nc2c1 was > 100 µM

Reported K-562 leukemia TGI for item CC(C)[C@@H]1CC[C@@H](C)C[C@H]1OC(=O)c1c2n(c3ccccc13)C[C@H]1OC(C)(C)O[C@@H]21 was > 100 µM

Reported K-562 leukemia TGI for item O=C1/C(=C/c2ccc(Cl)c(Cl)c2)CN(C(=O)C(Cl)Cl)C/C1=C\c1ccc(Cl)c(Cl)c1 was > 36.2 µM

Reported K-562 leukemia TGI for item COC(=O)CCSC(=O)Nc1ccc(N=Nc2ccccc2)cc1 was > 100 µM

Reported K-562 leukemia TGI for item CC(=O)Nc1[nH]n(C)c(=O)c1-c1nnc(C)s1 was > 100 µM

Reported K-562 leukemia TGI for item Cc1c(O)c(=O)ccn1CCN was > 100 µM

Reported K-562 leukemia TGI for item C/C(=N\O)c1ccc2ccc3ccccc3c2c1 was 93 µM

Reported K-562 leukemia TGI for item O=C(O/N=C1\CCCC\C1=C/c1ccccc1)c1ccc([N+](=O)[O-])cc1 was > 100 µM

Reported K-562 leukemia TGI for item CN(C)c1ccc(/C=C/C(=O)c2ccc(O)cc2)cc1 was 8.38 µM

Reported K-562 leukemia TGI for item CN=C(N)c1ccc(N=C(N)c2ccc(-c3ccc(C(N)=Nc4ccc(C(N)=NC)cc4)cc3)cc2)cc1 was > 100 µM

Reported K-562 leukemia TGI for item OCC#CCNCl was > 100 µM

Reported K-562 leukemia TGI for item N#C/C(=C\c1ccncc1)c1csc2ccccc12 was 50.8 µM

Reported K-562 leukemia TGI for item NC1NC=NC2C1N=CN2C1OC(CO)C2[O][Sn][O]C21 (centres undefined) was > 100 µM

Reported K-562 leukemia TGI for item CC(C)(O)/C1=C/C=C/CCCCCCCCCC1 was > 100 µM

Reported K-562 leukemia TGI for item COC(=O)C(=O)Cc1nc2ccccc2s1 was > 100 µM

Reported K-562 leukemia TGI for item CC1=NN=C(C)C1N=Nc1ccc2nc(C)[nH]c2c1 was > 100 µM

Reported K-562 leukemia TGI for item CN(C)CCN(C)P12(Oc3ccccc3O1)Oc1c(Cl)c(Cl)c(Cl)c(Cl)c1O2 was > 100 µM

Reported K-562 leukemia TGI for item CC(=O)C1CCN(c2ccccc2)C1 (centres undefined) was > 100 µM

Reported K-562 leukemia TGI for item O=C1[C@@H]2C(c3ccc(Br)cc3)=NO[C@@H]2C(=O)N1c1ccc(Cc2ccc(N3C(=O)[C@H]4C(c5ccc(Br)cc5)=NO[C@H]4C3=O)cc2)cc1 was > 40 µM

Reported K-562 leukemia TGI for item CC1=C(c2nc3ccccc3s2)C(=O)OC1(C)C was > 100 µM

Reported K-562 leukemia TGI for item C=C1CC(C)(COc2ccc3c(C)c(Cl)c(=O)oc3c2)OC1=O (centres undefined) was 5.98 µM

Reported K-562 leukemia TGI for item CCOC(=O)c1c2ccc(/C=C/c3ccccn3)ccc-2c(C(=O)OCC)c1N was > 100 µM

Reported K-562 leukemia TGI for item C=C1C[C@H]2C=Nc3cc(OCCCOc4cc5c(cc4OC)C(=O)N4CC(=C)C[C@H]4C=N5)c(OC)cc3C(=O)N2C1 was 3.44 µM

Reported K-562 leukemia TGI for item Cc1ccc(CNc2ccc(Br)cc2)cc1 was > 100 µM

Reported K-562 leukemia TGI for item CCOC(=O)c1c[nH]c(C(=O)OCC)c1-c1cccn1-c1ccccc1 was 45.4 µM

Reported K-562 leukemia TGI for item O=C1Nc2ccc(Cl)cc2/C1=C\c1c(-c2ccc(Cl)cc2)nc2sc(C3CC3)nn12 was 24.7 µM

Reported K-562 leukemia TGI for item CC1(C)OC(=O)C(C)(C)C(=O)O1 was > 100 µM

Reported K-562 leukemia TGI for item COc1ccc2c(c1)OC(N)=C(C#N)C2c1cc(OC)c(OC)c(OC)c1 (centres undefined) was > 100 µM

Reported K-562 leukemia TGI for item Cc1ccc(/C=C2\Sc3scc(-c4ccccc4)[n+]3C2=O)cc1 was 31.5 µM

Reported K-562 leukemia TGI for item Cn1c(=O)c2[nH]c(N=O)nc2n(C)c1=O was > 100 µM
